Biological target: T1, monomeric human CD19 antigen Fc(kih) fusion molecule (human, UniProt P0DOX5 223-449 = IgG part)
T1 construct: also called monomeric CD19-Fc; human CD19-Fc(kih)
Assay: SPR ProteOn XPR36, IgG from HEK supernatant captured via anti-human Fab, monomeric CD19-Fc analyte, 1:1 Langmuir
Measured koff of individual entries
Your answer should be a plain number; it is taken to be in s⁻¹.

- binder: "anti-CD19 clone 8B8-2B03 in P329GLALA human IgG1 format (antibody, V domains shown, light chain holds an X) VH: QVQLVQSGAEVKKPGASVKVSCKASGYTFTDYITHWVRQAPGQGLEWMGYINPYNDGSKYTEKFQGRVTMTSDTSISTAYMELSRLRSDDTAVYYCARGTYYYGPDLFDYWGQGTTVTVSS VL: DIVMTQTPLSLSVTPGQPASISCKSSQSLETSTGNTYLNWYLQKPGQSPQLLIYRVSKRFSGVPDRFSGSGSGTDFTLKISRVEAEDVGVYYCLQLTHVPYTFGQGTKLEIKR"
  readoutUnit: "s⁻¹"
  koff: "5e-05"

Query anti-CD19 clone 8B8-7H07 in P329GLALA human IgG1 format (antibody, V domains shown) VH: QVQLVQSGAEVKKPGASVKVSCKASGYTFTDYIMHWVRQAPGQGLEWMGYINPYNDGSKYTEKFQGRVTMTSDTSISTAYMELSRLRSDDTAVYYCARGTYYYGSELFDYWGQGTTVTVSS VL: DIVMTQTPLSLSVTPGQPASISCKSSQSLETSTGNTYLNWYLQKPGQSPQLLIYRVSKRFSGVPDRFSGSGSGTDFTLKISRVEAEDVGVYYCLQATHIPYTFGQGTKLEIKR yields koff of 5.57e-05

Query anti-CD19 clone 8B8-5H09 in P329GLALA human IgG1 format (antibody, V domains shown) VH: QVQLVQSGAEVKKPGASVKVSCKASGYTFTDYIMHWVRQAPGQGLEWMGYINPYNDGSKYTEKFQGRVTMTSDTSISTAYMELSRLRSDDTAVYYCARGTYYYGSALFDYWGQGTTVTVSS VL: DIVMTQTPLSLSVTPGQPASISCKSSQSLESSTGNTYLNWYLQKPGQSPQLLIYRVSKRFSGVPDRFSGSGSGTDFTLKISRVEAEDVGVYYCLQLIDYPVTFGQGTKLEIKR yields koff of 1.5e-05

Query anti-CD19 clone 8B8-5B08 in P329GLALA human IgG1 format (antibody, V domains shown) VH: QVQLVQSGAEVKKPGASVKVSCKASGYTFTDYIMHWVRQAPGQGLEWMGYINPYNDGSKYTEKFQGRVTMTSDTSISTAYMELSRLRSDDTAVYYCARGTYYYGPQLFDYWGQGTTVTVSS VL: DIVMTQTPLSLSVTPGQPASISCKSSQSLETSTGNTYLNWYLQKPGQSPQLLIYRVSKRFSGVPDRFSGSGSGTDFTLKISRVEAEDVGVYYCLQLDSYPNTFGQGTKLEIKR yields koff of 5.26e-05

Query anti-CD19 clone 8B8-2B11 in P329GLALA human IgG1 format (antibody, V domains shown) VH: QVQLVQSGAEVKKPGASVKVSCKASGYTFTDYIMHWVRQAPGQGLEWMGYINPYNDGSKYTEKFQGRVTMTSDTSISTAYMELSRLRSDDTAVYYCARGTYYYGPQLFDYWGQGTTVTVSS VL: DIVMTQTPLSLSVTPGQPASISCKSSQSLETSTGTTYLNWYLQKPGQSPQLLIYRVSKRFSGVPDRFSGSGSGTDFTLKISRVEAEDVGVYYCLQLLEDPYTFGQGTKLEIKR yields koff of 3.14e-05
